Test target: Histone deacetylase (Homo sapiens) (UniProt Q13547+O15379+Q9UBN7+Q92769+Q9UQL6+Q8WUI4+Q9BY41+Q96DB2+P56524+Q9UKV0+Q969S8);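 note: fluorescence read-out with Fluor de Lys as the HDAC substrate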
Test context: HeLa, at 1 µM
Description: Inhibition of HDAC in human HeLa cells using Fluor de Lys as substrate at 1 uM by fluorescence assay

>  <Smiles input>
CC(C)Nc1nc2c(s1)Cc1cc(/C=C/C(=O)NO)ccc1-2

>  <inhibition>
61.3%

$$$$
>  <Smiles input>
O=C(/C=C/c1ccc2c(c1)Cc1sc(Nc3ccc(F)cc3F)nc1-2)NO

>  <inhibition>
21.6%

$$$$
>  <Smiles input>
O=C(/C=C/c1ccc2c(c1)Cc1sc(NC3CCCCC3)nc1-2)NO

>  <inhibition>
24.8%

$$$$
>  <Smiles input>
CN(C)c1nc2c(s1)Cc1cc(/C=C/C(=O)NO)ccc1-2

>  <inhibition>
71.7%

$$$$
>  <Smiles input>
CC(C)(C)Nc1nc2c(s1)Cc1cc(/C=C/C(=O)NO)ccc1-2

>  <inhibition>
39.8%

$$$$
>  <Smiles input>
O=C(/C=C/c1ccc2c(c1)Cc1sc(Nc3ccccc3)nc1-2)NO

>  <inhibition>
20.7%

$$$$
>  <Smiles input>
COc1ccc(CNc2nc3c(s2)Cc2cc(/C=C/C(=O)NO)ccc2-3)cc1

>  <inhibition>
10.7%

$$$$
>  <Smiles input>
COc1ccc(Nc2nc3c(s2)Cc2cc(/C=C/C(=O)NO)ccc2-3)cc1

>  <inhibition>
45.1%

$$$$
>  <Smiles input>
CCCNc1nc2c(s1)Cc1cc(/C=C/C(=O)NO)ccc1-2

>  <inhibition>
52.7%

$$$$
>  <Smiles input>
O=C(/C=C/c1ccc2c(c1)Cc1sc(Nc3ccc(Cl)cc3)nc1-2)NO

>  <inhibition>
35.8%

$$$$
>  <Smiles input>
O=C(/C=C/c1ccc2c(c1)Cc1sc(Nc3cccnc3)nc1-2)NO

>  <inhibition>
62%

$$$$
>  <Smiles input>
O=C(/C=C/c1ccc2c(c1)Cc1sc(NCCN3CCOCC3)nc1-2)NO

>  <inhibition>
66.9%

$$$$
>  <Smiles input>
COCCNc1nc2c(s1)Cc1cc(/C=C/C(=O)NO)ccc1-2

>  <inhibition>
71.6%

$$$$
>  <Smiles input>
Cc1cc(C)c(Nc2nc3c(s2)Cc2cc(/C=C/C(=O)NO)ccc2-3)c(C)c1

>  <inhibition>
28.1%

$$$$
>  <Smiles input>
O=C(/C=C/c1ccc2c(c1)Cc1sc(Nc3ccncc3)nc1-2)NO

>  <inhibition>
10.2%

$$$$
>  <Smiles input>
Cc1ccc(Nc2nc3c(s2)Cc2cc(/C=C/C(=O)NO)ccc2-3)cc1

>  <inhibition>
7.71%

$$$$
>  <Smiles input>
O=C(/C=C/c1ccc2c(c1)Cc1sc(Nc3cccc(C(F)(F)F)c3)nc1-2)NO

>  <inhibition>
22.9%

$$$$
>  <Smiles input>
O=C(/C=C/c1ccc2c(c1)Cc1sc(Nc3ccccn3)nc1-2)NO

>  <inhibition>
25.5%

$$$$
